- assay.system: T1, natriuretic peptide receptor-B (human)
- T1 chain: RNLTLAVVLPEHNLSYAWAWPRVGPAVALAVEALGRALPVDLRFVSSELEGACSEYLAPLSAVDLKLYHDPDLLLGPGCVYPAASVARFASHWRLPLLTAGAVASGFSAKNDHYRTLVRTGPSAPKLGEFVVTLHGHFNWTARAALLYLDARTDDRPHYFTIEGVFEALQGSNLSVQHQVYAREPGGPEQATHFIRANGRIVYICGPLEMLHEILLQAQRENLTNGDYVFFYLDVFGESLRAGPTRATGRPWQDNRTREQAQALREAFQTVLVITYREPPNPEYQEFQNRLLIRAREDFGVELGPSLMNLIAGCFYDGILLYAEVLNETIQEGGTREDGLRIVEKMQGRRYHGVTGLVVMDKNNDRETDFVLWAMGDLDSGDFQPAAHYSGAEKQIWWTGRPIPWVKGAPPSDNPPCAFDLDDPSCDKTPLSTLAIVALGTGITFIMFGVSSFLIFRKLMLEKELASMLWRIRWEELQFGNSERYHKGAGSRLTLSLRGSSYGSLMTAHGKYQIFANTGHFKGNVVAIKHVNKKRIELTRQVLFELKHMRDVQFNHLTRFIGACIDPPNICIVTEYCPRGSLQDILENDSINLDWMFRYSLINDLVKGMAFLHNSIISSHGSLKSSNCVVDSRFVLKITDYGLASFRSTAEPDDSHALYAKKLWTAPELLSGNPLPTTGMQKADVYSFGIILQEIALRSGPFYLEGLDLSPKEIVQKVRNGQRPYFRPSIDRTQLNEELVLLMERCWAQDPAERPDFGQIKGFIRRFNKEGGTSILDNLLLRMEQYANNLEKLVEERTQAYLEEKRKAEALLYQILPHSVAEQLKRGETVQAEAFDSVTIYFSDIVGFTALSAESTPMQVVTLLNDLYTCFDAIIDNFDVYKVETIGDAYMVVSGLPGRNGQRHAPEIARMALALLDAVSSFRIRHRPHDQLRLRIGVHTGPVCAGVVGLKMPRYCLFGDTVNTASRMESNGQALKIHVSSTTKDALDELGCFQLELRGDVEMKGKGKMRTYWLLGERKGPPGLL
- experimental.protocol: cell-based or functional assay
Numbered stars: 1 amine (or outer) side, 2 acyl side, 3 side chain; on linkers, the order of the positions; unused ones are H or OH. Square brackets hold non-standard residues; d marks the D form. Ends that are not written are not given here. Sni = (S)-nipecotic acid, O=C([C@H]1CCCN([*:1])C1)[*:2]; Hyp = O=C(O)[C@@H]1C[C@@H](O)CN1; dAoc(2) = CCCCCC[C@@H](N)C(=O)O; NMeL = CN[C@@H](CC(C)C)C(=O)O; Nle = CCCC[C@H](N)C(=O)O; leu = not defined here; Occ = octanoic acid

binder: [Occ][Sni]F[leu][Nle][Hyp][NMeL]DRI-NH2 (reading uncertain; also: printed as Occ-Sni-Phe-leu-Nle-Hyp-Nml-Asp-Arg-Ile-NH2) [JAL-1624]
EC50 group, cGMP in GTM-3 cells: ≤ 1 µM
//
binder: [Occ][Sni]FGLP[NMeL]DRI-NH2 [JAL-0956]
EC50 group, cGMP in GTM-3 cells: ≤ 5 µM
//
binder: XXXFLLXXDRI (HELM PEPTIDE1{[O=C(CCc1ccccc1)[*:2]].[bAla].[O=C([C@H]1CCCN([*:1])C1)[*:2]].F.[dL].L.[Hyp].[meL].D.R.I.[am]}$$$$V2.0; SMILES CC[C@H](C)[C@H](NC(=O)[C@H](CCCNC(=N)N)NC(=O)[C@H](CC(=O)O)NC(=O)[C@H](CC(C)C)N(C)C(=O)[C@@H]1C[C@@H](O)CN1C(=O)[C@H](CC(C)C)NC(=O)[C@@H](CC(C)C)NC(=O)[C@H](Cc1ccccc1)NC(=O)[C@H]1CCCN(C(=O)CCNC(=O)CCc2ccccc2)C1)C(N)=O) [JAL-1669]
EC50 group, cGMP in GTM-3 cells: ≤ 15 µM
//
binder: Ac-[dAoc(2)][dA][dA]FGLPLDRI-NH2 [JAL-1034]
EC50 group, cGMP in GTM-3 cells: ≤ 5 µM
